Reference for the values: paper PMC6017926

Target: VEGF165 (UniProt P15692-4 27-191)
Sequence (P15692 other isoform, or with tags, fused parts or gaps): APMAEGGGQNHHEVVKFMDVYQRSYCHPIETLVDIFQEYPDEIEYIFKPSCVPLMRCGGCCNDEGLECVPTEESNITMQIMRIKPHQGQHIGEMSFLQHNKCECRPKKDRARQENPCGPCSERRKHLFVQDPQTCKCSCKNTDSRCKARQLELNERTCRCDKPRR
Assay: SPR; 100 mM K+; SPR VEGF165: DNA folded in 10 mM Tris-HCl, 100 mM KCl, pH 7.4, 25 °C; ELONA: DNA folded in TK (100 mM KCl) or 100 mM LiCl buffer, binding in TBS (10 mM Tris-HCl, 150 mM NaCl, 5 mM KCl), 90 µM ZnCl2, pH 7.3, RT; SPR GST-SP1: captured by anti-GST on CM5, single-cycle kinetics 10-160 nM DNA, running buffer not stated
Conditions: chain copies: 2; label: 5' biotin for ELONA; G4, altered topology
REPORTED_METRIC: Kd (nM)
Give the quantity in nM, number only.

Exercise: Annotate the binder GGGGCGGGCCGGGGGCGGGG (structured_DNA, 5-methylcytosine at CpG (underlining lost in text; CpG C at 5, 10, 16)) [VEGF G4 methylated] with its measured Kd.
Key: 25
